Origin of the recorded values: the supplement of paper PMC9732359

experimental-protocol: protein stability index of a GFP-peptide fusion (yeast GPS) (PSI 1-4); higher = more stable; sorted into four equal gates, so the index is relative within each strain
condition-details: doa10∆
For each entry below, report its protein stability index value.
Would you mind answering with just the numeric figure?

So what does the record say about protein stability index for ELLSKYKEQIIQGFYWA [SNU114] ? 2.99

Data request, read-out protein stability index, for SSDVDMDDEEWRSKRIE [RPC53] 3.47

What protein stability index value was documented for this sequence, ARIVRVRSREDRKNRAP [RPS26A] ? 3.55

Query: protein stability index; subject: AQQVPPYGVYHPPFIKY [SIN4] 2.99

Recorded protein stability index for MTVKLESITYQKIMILQ [RGR1] , please? 2.16

Value lookup for protein stability index; key = GFPSAPQPLFMEDPPST [YMR153W/NUP53] 2.66

Entry TIFKYLTDKDAFETHYR [CDC53] : reported protein stability index = ? 3.27

Look up protein stability index: DTICQSIQEQIQEFQGN [SNF5] 3.27

Quick check: protein stability index of KTICNLLISDTESNELI [IRR1] ? 2.74

// returns reported protein stability index for input RNLQMGLRNQNMVRNNN [GRR1] 2.62

Which protein stability index value belongs to TTVPFKESDDPSIPLVI [POP1] ? 2.8

State the recorded protein stability index for this entry: NASDALKGRVVEVCLAD [RPS1B] 3.34

Quick one: protein stability index for MTVNDQPIEKNGDKMPL [YJR042W/NUP85] ? 2.73

May I ask what protein stability index has been recorded for FRYITTWENEFLDSQRV [PRP8] ? 2.77

protein stability index for YRNNEPAGFTHKLSNWL [YDL088C/ASM4] ? 2.49

# lookup: protein stability index of GGLKSCDLDFPLRENTN [YDL116W/NUP84] 2.59

Which protein stability index reading was recorded for the sequence FLNTPNNNINENELFND [SSN2] ? 2.94

Can you look up the measured protein stability index of SKEFSAYVSGLFEIYRD [YJR042W/NUP85] for me? 1.76

Could you share which protein stability index value was measured for MGMDLYKTSKAAQDVWN [FAS1] ? 3.08

###

experimental-protocol: protein stability index of a GFP-peptide fusion (yeast GPS) (PSI 1-4); higher = more stable; sorted into four equal gates, so the index is relative within each strain
condition-details: pdr5∆
What protein stability index was measured for each of the following?
Answer with a bare number; do not write a unit.

Field request: protein stability index | item: DVLINELLDQVTLGREG [CDC53] 3.1

Which protein stability index reading was recorded for the sequence CEAAVEISKKDFVRKGG [SIR3] ? 2.9

Item IGARSQGAKTYLERTLD [PRE5] has what recorded protein stability index? 3.34

Param item = LQEKFLNQIATLKIHLK [IRR1] ; retrieve measured protein stability index. 1.4

Which measured protein stability index value corresponds to LTATPNSINKTTVPFKE [POP1] ? 2.44

Look up protein stability index for this sequence: SSLSAIIVFGYPESISN [YDL088C/ASM4] 1.88

Item under review: CSRIIKIDKPIRTQVNT [RGR1] . Reported protein stability index? 2.31

Item under review: IRIFRSELQRLSHENNV [RPT5] . Reported protein stability index? 3.21

I would be grateful if you could share the reported protein stability index for GNIQISEYNFLEGSVSL [DIS3] . 3.08

State the recorded protein stability index for this entry: WSHNGPFETFDHASIRR [CYT1] 3

Would you mind telling me what protein stability index value was observed for AFVKDMQVYLVPIERVA [RPC37] ? 1.39

Name the recorded protein stability index for EIEMKNKLEKLNSLLTY [SMC4] . 1.87

Quick one: protein stability index for LRACAANVDQISFLEPI [YMR129W/POM152] ? 2.98

Quick check: protein stability index of MFNDLNSMDISMFSGLD [MED2] ? 3.26

Please give the measured protein stability index for this sequence: YIHRIGRTGRAANEGTA [PRP28] 3.29

protein stability index lookup needed for MMTRRVVMAMYNPKMID [RET1] , thanks. 3.37

Query (sequence): INQIFSPEEQRSLLQEA [GAL11] ; field requested: protein stability index 3.07

Need protein stability index of ENPTDNFIIWINSIDTT [GRR1] , thanks. 2.51

Name the recorded protein stability index for SFLGYLRYVKQIEGPFL [ISW2] . 2.42

I have this sequence here, LCSMLQEASQVTFIFGE [MED11] , and I need its recorded protein stability index. 2.74

Look up protein stability index: VNGSPITLVEPEILRFK [RPS16A] 2.79

I am curious: what protein stability index value has been reported for KTKWDRKPMGKRINFEK [POP1] ? 3.35

###

Please respond with reported protein stability index for every item in the list.
experimental-protocol: protein stability index of a GFP-peptide fusion (yeast GPS) (PSI 1-4); higher = more stable; sorted into four equal gates, so the index is relative within each strain
condition-details: doa10∆
Could you respond with only the numeric value?

I have this sequence here, HQNVIIGSNGSGKSNFF [SMC3] , and I need its recorded protein stability index. 3.07

What value of protein stability index has been recorded for this entry: TKPSETPATIVKKPTFT [YOR098C/NUP1] 2.91

Recorded protein stability index of ENNSDSNSNNNGNKDSS [SWI1] , please. 2.95

Which measured protein stability index value corresponds to KKIREIYRYDEMSNKVL [BRR2] ? 2.92

For the sequence QAQAQAQANNNNNGLPQ [GAL11] , what protein stability index is on record? 3.04

I have this sequence here, QDRDRFFLRDTLLWNKN [SNF5] , and I need its recorded protein stability index. 2.99

Which protein stability index is reported for this sequence? THPKDTFYITREKYNMK [ARP9] 2.98

###

experimental-protocol: protein stability index of a GFP-peptide fusion (yeast GPS) (PSI 1-4); higher = more stable; sorted into four equal gates, so the index is relative within each strain
condition-details: doa10∆
endpoint: protein stability index
Returns: the value as a bare number; no unit string appended.

Can you look up the measured protein stability index of STFENRNVGKTLVNKST [RPS1A] for me? 2.91

Fill blank: measured protein stability index of the sequence SATSTTEQTKSKNPLSL [YLR335W/NUP2] is ____. 2.95

Look at this sequence and give its reported protein stability index. EPDREKIKLLTQATSED [RPC19] 2.95

Bench note: what protein stability index did FEIIFPPTDTNVEESVS [POP5] show? 2.91

Fill blank: measured protein stability index of the sequence SDKESNAYGFIEWCSRC [YJL039C/NUP192] is ____. 2.98

Requested field: protein stability index. Item: KEMTLQKNMNDLLRSQL [YIL149C/MLP2] 3.08

# query: protein stability index of entry INAQGEEIVVVASADYE [PRP8] 2.91

# lookup: protein stability index of TSAKEPSENDVFYRMQQ [RPO31] 3.08

Param item = IGIVDYEAGASHGNPVV [FAS1] ; retrieve measured protein stability index. 3.01

Report protein stability index for EINAVFNELCDPESRTQ [POP1] please. 2.91

Record request: protein stability index value, item EVTFKNANIFSSVKCFG [FAS1] 2.92

Recorded protein stability index for ARIALRHLEKEGIIKPI [RPS25A] , please? 2.98

###

experimental-protocol: protein stability index of a GFP-peptide fusion (yeast GPS) (PSI 1-4); higher = more stable; sorted into four equal gates, so the index is relative within each strain
condition-details: ubr1∆
Consider the following sequences; for each one, report its protein stability index.
Quick one: just the number, no unit, thanks!

Fill in: protein stability index of DDVRRAAVIALGFVLLR [RPN2] is ___ 1.8

State the recorded protein stability index for this entry: FVNGVWHGVHRNPARLM [RPB2] 1.5

Given SLQDNSAAINNEDARAI [RPN4] , state its recorded protein stability index. 3.18

Reported protein stability index for HKTMSIVGVLQDDADPM [RPT2] : what is it? 1.85

###

experimental-protocol: protein stability index of a GFP-peptide fusion (yeast GPS) (PSI 1-4); higher = more stable; sorted into four equal gates, so the index is relative within each strain
condition-details: doa10∆
endpoint: protein stability index
Provide a numeric answer; units are not to be included.

Using the record for ARDIISHNFQNAIFQME [PCI8] , report its protein stability index. 2.79

I would be grateful if you could share the reported protein stability index for SKKISNTAAALVSLLDE [YAR002W/NUP60] . 2.9

Quick one: protein stability index of VLEDVYRCFAQLELRQL [RRI2] ? 2.15

Need protein stability index, item KVTSYDITGDIRNEGSD [ISW2] 3.15

Dear colleague, I am looking for the recorded protein stability index of the following sequence: WKTAEEVSALVRSLPKE [PRP8] 1.21

Param item = LLVERLKEDDSSLYEAS [RPN1] ; retrieve measured protein stability index. 3.22

What measured protein stability index goes with KSKGDVDIKGEDLHEKN [NUT1] ? 3.32

Any idea what protein stability index was measured for KEALLGQLLKDHLIIEP [ARP9] ? 1.79

Value lookup for protein stability index; key = YHLTKAVKLGDLKKFTS [RPN3] 1.77

Recorded protein stability index of VTLVNGKRRMNPGPSVQ [RPS30A] , please. 2.69

Query (sequence): RFSYSPPKEGNYEIVFD [YMR129W/POM152] ; field requested: protein stability index 3.05

Name the recorded protein stability index for EELRGQQTEHETEIKDL [SMC4] . 3.34

Can you share its protein stability index? I mean this sequence: SDEEESVLDEQEQYQTN [SNU114] 3.11

Fill blank: measured protein stability index of the sequence DTAPKPNIVEIDLDNDE [DLS1] is ____. 3.27

Entry under review: MAQTATQQQPGAPGANA [SRP54] . Reported protein stability index? 3.31

Consider the sequence shown here: ETITTKRVPNPNFLGNC [SWP82] What is its recorded protein stability index? 2.68

Fill in: protein stability index of ILNDIETLEHNPVALEQ [BRR2] is ___ 2.95
